Provide the recorded IC50 for the entries that follow.
molecular target: vanilloid receptor (Rattus norvegicus, UniProt O35433); construct: DRG nerve cells from the primary culture of 2 days were equilibrated by washing 4 times; endogenous in cells; test: 45Ca influx test (calcium uptake) in primary cultured neonatal rat DRG neurons, capsaicin-stimulated; conditions: capsaicin 0.5 µM, 45Ca 10 µCi/ml, 10 mins at room temperature, read-out: Antagonist Calcium Uptake Test (IC50)
Sequence (O35433 whole entry): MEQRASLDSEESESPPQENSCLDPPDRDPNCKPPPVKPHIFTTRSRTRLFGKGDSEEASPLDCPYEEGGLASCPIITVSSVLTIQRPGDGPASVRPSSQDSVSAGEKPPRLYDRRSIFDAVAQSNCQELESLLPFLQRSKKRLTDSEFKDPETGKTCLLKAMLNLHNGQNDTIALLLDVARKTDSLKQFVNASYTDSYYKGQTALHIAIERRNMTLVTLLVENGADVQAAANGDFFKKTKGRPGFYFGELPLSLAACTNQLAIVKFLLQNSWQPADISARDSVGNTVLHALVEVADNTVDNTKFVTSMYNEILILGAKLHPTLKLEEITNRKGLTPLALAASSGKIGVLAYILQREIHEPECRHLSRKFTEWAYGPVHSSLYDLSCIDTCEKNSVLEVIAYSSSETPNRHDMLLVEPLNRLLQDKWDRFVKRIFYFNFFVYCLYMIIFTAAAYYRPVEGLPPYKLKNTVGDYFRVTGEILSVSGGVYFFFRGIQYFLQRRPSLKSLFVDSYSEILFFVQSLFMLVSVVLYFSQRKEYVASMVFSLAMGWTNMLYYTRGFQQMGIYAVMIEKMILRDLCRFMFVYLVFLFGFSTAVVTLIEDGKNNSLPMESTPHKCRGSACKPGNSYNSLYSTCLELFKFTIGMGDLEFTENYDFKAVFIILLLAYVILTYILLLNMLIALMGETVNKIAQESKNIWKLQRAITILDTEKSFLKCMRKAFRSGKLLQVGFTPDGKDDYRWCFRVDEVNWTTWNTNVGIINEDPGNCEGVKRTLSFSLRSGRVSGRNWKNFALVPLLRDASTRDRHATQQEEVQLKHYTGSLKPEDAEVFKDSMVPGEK

Below: 3 compounds and their reported IC50.
{"COMPOUND": "CC(C)(C)c1ccc(OC(F)C(=O)NCc2ccc(NS(C)(=O)=O)c(F)c2)cc1 (stereo not shown)", "TARGET_UNDER_TEST": "vanilloid receptor (Rattus norvegicus, UniProt O35433)", "IC50": "0.18 µM"}
{"COMPOUND": "CS(=O)(=O)Nc1ccc(CNC(=O)COc2ccc(Cl)cc2)cc1F", "TARGET_UNDER_TEST": "vanilloid receptor (Rattus norvegicus, UniProt O35433)", "IC50": "8.7 µM"}
{"COMPOUND": "CS(=O)(=O)Nc1ccc(CNC(=O)COc2ccc(Cl)c(Cl)c2)cc1F", "TARGET_UNDER_TEST": "vanilloid receptor (Rattus norvegicus, UniProt O35433)", "IC50": "2.3 µM"}

Now consider the entry below.
Sure, the documented IC50 for CC(C)(Oc1ccc(C(F)(F)F)cc1)C(=O)NCc1ccc(NS(C)(=O)=O)c(Cl)c1 is > 10 µM
